Molecular target: T1, monkey CD22 protein (ACROBiosystems, catalog number SI2-R52Ha) (monkey, UniProt F6W485 20-688)
T1 construct: commercial protein; also called monkey CD22-ECD; monkey CD22-ECD-His
T1 sequence: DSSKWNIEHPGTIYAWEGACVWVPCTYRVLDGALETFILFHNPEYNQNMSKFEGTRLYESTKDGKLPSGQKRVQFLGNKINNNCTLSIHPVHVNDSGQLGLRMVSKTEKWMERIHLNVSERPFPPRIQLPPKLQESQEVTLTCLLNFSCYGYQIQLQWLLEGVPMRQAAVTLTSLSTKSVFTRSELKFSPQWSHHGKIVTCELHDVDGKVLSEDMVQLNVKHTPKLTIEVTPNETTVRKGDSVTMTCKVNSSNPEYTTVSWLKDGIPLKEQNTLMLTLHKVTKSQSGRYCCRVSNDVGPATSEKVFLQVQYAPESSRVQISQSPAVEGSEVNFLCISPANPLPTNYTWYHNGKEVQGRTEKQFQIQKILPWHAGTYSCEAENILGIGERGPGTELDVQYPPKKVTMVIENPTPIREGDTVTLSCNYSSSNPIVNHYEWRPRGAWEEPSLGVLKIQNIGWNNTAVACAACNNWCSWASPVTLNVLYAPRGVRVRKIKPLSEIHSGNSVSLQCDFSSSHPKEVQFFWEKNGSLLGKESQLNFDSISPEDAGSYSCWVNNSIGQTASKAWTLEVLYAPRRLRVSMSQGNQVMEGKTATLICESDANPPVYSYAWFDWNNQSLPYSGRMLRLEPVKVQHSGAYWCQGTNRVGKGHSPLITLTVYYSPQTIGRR
Test: ELISA, coated monkey CD22 protein, antibody 0.0001 nM
In this section we review reported OD450 values for a set of binders.
Answer with a number only, understood to be in OD450.

# count of solved cases: 2
F2.173.9 (antibody, human IgG1, lambda, V domains shown, human-murine chimeric IgG1 lambda) VH: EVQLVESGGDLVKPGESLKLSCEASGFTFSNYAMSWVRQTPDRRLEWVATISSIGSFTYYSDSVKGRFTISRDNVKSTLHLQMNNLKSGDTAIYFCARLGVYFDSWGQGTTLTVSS VL: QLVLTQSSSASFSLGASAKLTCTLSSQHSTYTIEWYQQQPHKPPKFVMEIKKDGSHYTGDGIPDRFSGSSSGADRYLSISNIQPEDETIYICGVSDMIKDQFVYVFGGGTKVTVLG; 0.06
F2.42.9 (antibody, human IgG1, lambda, V domains shown, human-murine chimeric IgG1 lambda; VL name legible) VH: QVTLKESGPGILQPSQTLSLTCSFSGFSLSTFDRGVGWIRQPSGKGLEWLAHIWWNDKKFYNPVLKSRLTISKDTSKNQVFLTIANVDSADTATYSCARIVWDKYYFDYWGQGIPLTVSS VL: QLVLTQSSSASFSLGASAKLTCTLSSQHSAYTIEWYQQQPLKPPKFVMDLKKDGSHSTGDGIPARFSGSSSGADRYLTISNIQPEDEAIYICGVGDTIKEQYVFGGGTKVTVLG; 0.07

Here is another binder to look at.
For F1.231.15 (antibody, IgG1, V domains shown, human-murine chimeric IgG1 kappa) VH: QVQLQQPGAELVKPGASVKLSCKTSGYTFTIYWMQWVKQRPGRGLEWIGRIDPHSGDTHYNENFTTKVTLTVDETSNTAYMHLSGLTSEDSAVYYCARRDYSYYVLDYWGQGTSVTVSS VL: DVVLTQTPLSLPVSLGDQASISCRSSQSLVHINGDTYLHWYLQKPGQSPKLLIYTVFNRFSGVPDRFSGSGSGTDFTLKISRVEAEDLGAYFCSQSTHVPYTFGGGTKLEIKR the binder record lists OD450 as 0.06

Entry source: patent US20240084003A1
